# subject.of.test: CRF-binding protein / CRF-R2 receptor complex (human)
# assay.text: CRF-BP/CRF-R2 complex antagonists, SAR follow-up, cell-based, 384-well, HEK293, calcium flux, powder samples (AID 651649)
# experimental.conditions: CRF-induced calcium flux, Fluo4
The source made the active and inactive calls.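 Rule for the calls: active = IC50 below 20 µM; inactive = the rest.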
// classify into active, inactive

Worked examples, 3 compounds total:
{"columns": ["compound", "classification"],
 "data": [
  ["COc1cccc2cc(-c3nnc(-c4ccccc4)o3)c(=O)oc12", "active"],
  ["COC(=O)c1ccc(CSc2nc3ccccc3c(=O)n2-c2ccccc2)o1", "active"],
  ["CC1CC(C)CN(C(=O)CSc2nc(Cc3cccs3)nc3ccccc23)C1 (stereo unspecified)", "active"]
]}

Asked: Just curious, what result did CCOc1ccc(Cl)cc1S(=O)(=O)n1nnc2ccccc21 get here?
Given back: active

Asked: Would you mind telling me which call this test gave COc1ccc(C(=O)COC(=O)c2cccnc2SC)cc1 ?
Given back: inactive

Asked: In this assay, the call recorded for Cn1c(COc2ccccc2)nnc1SCC(=O)c1cccc([N+](=O)[O-])c1 was what?
Given back: inactive

----------
# subject.of.test: CRF-binding protein / CRF-R2 receptor complex (human)
# assay.text: CRF-BP/CRF-R2 complex antagonists, SAR follow-up, cell-based, 384-well, HEK293, calcium flux, powder samples (AID 651649)
# experimental.conditions: CRF-induced calcium flux, Fluo4
The source made the active and inactive calls.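 Rule for the calls: active = IC50 below 20 µM; inactive = the rest.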
Select the matching outcome among active, inactive

Known results for compounds:
{"columns": ["compound", "subject.of.test", "classification"],
 "data": [
  ["CC(C)Cn1c(SCC(=O)N2CCc3ccccc3C2)nc2cc(Cl)ccc2c1=O", "CRF-binding protein / CRF-R2 receptor complex (human)", "active"],
  ["CC(=O)NC(Cc1ccc(C)cc1)C(=O)NC1CCN(c2ncccc2[N+](=O)[O-])CC1 (configuration not stated)", "CRF-binding protein / CRF-R2 receptor complex (human)", "active"],
  ["Cc1nc2nc(SCC(=O)c3cccc([N+](=O)[O-])c3)[nH]c2cc1Br", "CRF-binding protein / CRF-R2 receptor complex (human)", "inactive"],
  ["O=C(COc1cc(Cl)ccc1Cl)N1CCNC1=O", "CRF-binding protein / CRF-R2 receptor complex (human)", "active"],
  ["C=CCOc1ccc(/C=C2\\SC(=S)N(NS(=O)(=O)c3ccccc3)C2=O)cc1", "CRF-binding protein / CRF-R2 receptor complex (human)", "active"]
]}

Asked: Recorded test outcome, item COc1cccc(C2CC(c3cccs3)=NN2C(=O)c2ccco2)c1O (configuration not stated)
Given back: active

Asked: What classification did COCCNc1nc2c(S(=O)(=O)c3cc(C)ccc3C)nnn2c2ccccc12 end up with in this test?
Given back: inactive

Asked: Lab log entry: COc1ccc([N+](=O)[O-])cc1NC(=O)c1ccccc1SC — outcome as called in the assay?
Given back: active

Asked: Could you please tell me the result logged for Cc1ccc2cccc(Oc3ncnc4scc(-c5ccccc5)c34)c2n1 in this assay?
Given back: active

----------
# subject.of.test: CRF-binding protein / CRF-R2 receptor complex (human)
# assay.text: CRF-BP/CRF-R2 complex antagonists, SAR follow-up, cell-based, 384-well, HEK293, calcium flux, powder samples (AID 651649)
# experimental.conditions: CRF-induced calcium flux, Fluo4
Calls of active or inactive are those of the source.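 Rule for the calls: active = IC50 below 20 µM; inactive = the rest.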
Reply using exactly one outcome from true (active), false (inactive)

{"columns": ["molecule", "classification"],
 "data": [
  ["O=C(O)c1ccc(COc2ccccc2C=C2C(=O)c3ccccc3C2=O)cc1", "true"],
  ["O=C(COc1ccc2ccccc2c1)Nc1cccc(C(=O)Nc2ccccc2C(=O)O)c1", "true"],
  ["Brc1ccccc1-c1nnc(CSc2nnnn2-c2ccccc2)o1", "true"],
  ["Cc1ccccc1-c1cc2nc(-c3ccc([N+](=O)[O-])cc3)cc(=O)n2[nH]1", "false"],
  ["Cc1ccc(S(=O)(=O)N(CC(=O)Nc2ccccc2C(=O)O)c2ccc(Cl)cc2)cc1", "true"],
  ["Cc1ccc(-n2nnnc2SCc2nnc(-c3ccccc3Br)o2)c(C)c1", "true"],
  ["Cc1ccccc1Cn1ccc(NC(=O)c2cc3ncc(Br)cn3n2)n1", "false"],
  ["O=c1oc2ccc3ccccc3c2cc1-c1nnc(-c2ccccc2)o1", "true"],
  ["Cc1ccc(NC(=O)c2ccccc2NS(=O)(=O)c2ccc(F)cc2)cc1S(=O)(=O)N1CCCCC1", "false"],
  ["NC(=O)c1ccc(NCc2ccco2)c([N+](=O)[O-])c1", "true"]
]}

Asked: So what was the verdict on COc1ccc(Oc2ccc(C(F)(F)F)cc2NC(=O)c2ccc(OC)cc2)cc1 in this test?
Given back: false

Asked: Hello, I am checking results. What call was entered for CC(C)(C)c1cc(C(=O)NNC(=O)Nc2cccc(Cl)c2)n(Cc2ccccc2)n1 ?
Given back: true

Asked: # fetch the recorded call for COc1cccc(NC(=S)NC(Cc2ccccc2)c2ccccc2)c1 (stereo not drawn) here
Given back: true

All values here come from PubChem BioAssay AID651649.
